TARGET UNDER TEST: cannabinoid receptor (CP 55940 binding sites) (Rattus norvegicus, UniProt P20272)
Sequence (P20272 whole entry): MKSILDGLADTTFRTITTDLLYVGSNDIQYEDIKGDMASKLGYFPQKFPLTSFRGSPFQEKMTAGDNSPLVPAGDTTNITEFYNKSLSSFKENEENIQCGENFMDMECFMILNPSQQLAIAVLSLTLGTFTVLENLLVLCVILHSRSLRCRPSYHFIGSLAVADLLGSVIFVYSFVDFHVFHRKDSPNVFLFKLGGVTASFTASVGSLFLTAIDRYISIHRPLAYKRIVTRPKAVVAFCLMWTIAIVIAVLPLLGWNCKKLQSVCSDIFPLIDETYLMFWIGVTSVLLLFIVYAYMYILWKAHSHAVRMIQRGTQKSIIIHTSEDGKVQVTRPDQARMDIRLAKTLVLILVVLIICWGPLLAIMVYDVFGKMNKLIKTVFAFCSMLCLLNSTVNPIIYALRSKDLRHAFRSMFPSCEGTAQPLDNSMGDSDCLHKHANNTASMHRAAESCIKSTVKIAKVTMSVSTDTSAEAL
pIC50: −log10 of the molar value.
The following molecules are shown together with reported pIC50 values.
MEASUREMENT NAME: pIC50

{"MOLECULE": "Cc1c(C(=O)c2cccc3ccccc23)c2ccccc2n1CCN1CCOCC1 [Example 1AP]", "RESULT": 7.29}
{"MOLECULE": "O=C(c1cccc2ccccc12)c1cn(CCN2CCOCC2)c2ccccc12 [Example 2Z]", "RESULT": 7.06}

====

Quick note: these are IC50 numbers for system: UniProt:P20272

{"MOLECULE": "COc1ccc(C(=O)c2c(C)n(CCN3CCOCC3)c3ccccc23)cc1", "IC50": "3 to 10 µM"}
{"MOLECULE": "Cc1c(C(=O)c2cccc3ccccc23)c2ccccc2n1CCN1CCCC(O)C1 (stereo not drawn)", "IC50": "0.2 to 0.5 µM"}
{"MOLECULE": "Cc1c(C(=O)c2csc3ccccc23)c2ccccc2n1CCN1CCOCC1", "IC50": "~0.05 µM"}
